# System: Mannheimia haemolytica
# Assay: minimum inhibitory concentration (MIC)
# Conditions used: isolate (source animal id): 335
Quick reference: minimum inhibitory concentration of the listed items.

Consider the worked cases shown below.
{"Cpd smiles": "COc1cc(Cc2cnc(N)nc2N)cc(OC)c1OC.Cc1cc(NS(=O)(=O)c2ccc(N)cc2)no1", "minimum inhibitory concentration": "≤ 2 µg/mL"}
{"Cpd smiles": "CC[C@H]1OC(=O)C[C@@H](O)[C@H](C)[C@@H](O[C@@H]2O[C@H](C)[C@@H](O)[C@H](N(C)C)[C@H]2O)[C@@H](CCN2CCCCC2)C[C@@H](C)C(=O)/C=C/C(C)=C/[C@@H]1CN1CCCCC1", "minimum inhibitory concentration": "16 µg/mL"}
{"Cpd smiles": "CS(=O)(=O)c1ccc([C@@H](O)[C@@H](CF)NC(=O)C(Cl)Cl)cc1", "minimum inhibitory concentration": "2 µg/mL"}
{"Cpd smiles": "CO/N=C(\\C(=O)N[C@@H]1C(=O)N2C(C(=O)O)=C(CSC(=O)c3ccco3)CS[C@H]12)c1csc(N)n1", "minimum inhibitory concentration": "≤ 0.25 µg/mL"}
{"Cpd smiles": "NC[C@@H]1O[C@H](O[C@H]2[C@@H](O)[C@H](O[C@@H]3[C@@H](O)[C@H](N)C[C@H](N)[C@H]3O[C@H]3O[C@H](CN)[C@@H](O)[C@H](O)[C@H]3N)O[C@@H]2CO)[C@H](N)[C@@H](O)[C@@H]1O", "minimum inhibitory concentration": "> 32 µg/mL"}

Reported minimum inhibitory concentration for CC[C@H]1OC(=O)C[C@@H](O)[C@H](C)[C@@H](O[C@@H]2O[C@H](C)[C@@H](O)[C@H](N(C)C)[C@H]2O)[C@@H](CCN2C[C@H](C)C[C@H](C)C2)C[C@@H](C)C(=O)/C=C/C(C)=C/[C@@H]1CO[C@@H]1O[C@H](C)[C@@H](O)[C@@H](OC)[C@H]1OC : what is it?
> 16 µg/mL

Reported minimum inhibitory concentration for CC1(C)S[C@@H]2[C@H](NC(=O)[C@H](N)c3ccccc3)C(=O)N2[C@H]1C(=O)O : what is it?
≤ 0.25 µg/mL

Reported minimum inhibitory concentration for CCC[C@@H]1C[C@@H](C(=O)N[C@@H]([C@H]2O[C@H](SC)[C@H](O)[C@@H](O)[C@H]2O)[C@H](C)Cl)N(C)C1 : what is it?
16 µg/mL

----------
# Test system: Histophilus somni
# Assay: minimum inhibitory concentration (MIC)
# Conditions used: isolate (source animal id): 271
Quick reference: minimum inhibitory concentration of the listed items.

Consider the worked cases shown below.
{"Compound": "CN[C@@H]1[C@H](O)[C@H](NC)[C@H]2O[C@@]3(O)C(=O)C[C@@H](C)O[C@H]3O[C@@H]2[C@H]1O", "minimum inhibitory concentration": "> 64 µg/mL"}
{"Compound": "CC[C@H]1OC(=O)C[C@@H](O)[C@H](C)[C@@H](O[C@@H]2O[C@H](C)[C@@H](O[C@H]3C[C@@](C)(O)[C@@H](O)[C@H](C)O3)[C@H](N(C)C)[C@H]2O)[C@@H](CC=O)C[C@@H](C)C(=O)/C=C/C(C)=C/[C@@H]1CO[C@@H]1O[C@H](C)[C@@H](O)[C@@H](OC)[C@H]1OC", "minimum inhibitory concentration": "8 µg/mL"}
{"Compound": "CN(C)[C@@H]1C(O)=C(C(N)=O)C(=O)[C@@]2(O)C(O)=C3C(=O)c4c(O)cccc4[C@@](C)(O)[C@H]3C[C@@H]12", "minimum inhibitory concentration": "2 µg/mL"}
{"Compound": "CNC(C)C1CCC(N)C(OC2C(N)CC(N)C(OC3OCC(C)(O)C(NC)C3O)C2O)O1 (stereo not given)", "minimum inhibitory concentration": "8 µg/mL"}

Read the next record carefully.
Reported minimum inhibitory concentration for CC[C@H]1OC(=O)C[C@@H](O)[C@H](C)[C@@H](O[C@@H]2O[C@H](C)[C@@H](O)[C@H](N(C)C)[C@H]2O)[C@@H](CCN2CCCCC2)C[C@@H](C)C(=O)/C=C/C(C)=C/[C@@H]1CN1CCCCC1 : what is it?
2 µg/mL

Data provenance is the supplement of paper PMC8612539.
